Would you kindly list DDA + salt for each of these molecules?
- Test system: P. acnes NCTC 737
- TEST NAME: Supplemented disc diffusion assay (DDA + salt or lipid)
- Assay type: cell-based, Propionibacterium acnes
- CONDITION: agar supplemented with salt, 200 μg per disc
Numbers only, in mm.

Examples with their reported DDA + salt follow.
MOLECULE	MEASURED ON	OBSERVED MEASUREMENT
O=C1C=CC(=O)C=C1	P. acnes NCTC 737	31.44
CC1=CC(=O)C(C(C)C)=CC1=O	P. acnes NCTC 737	46.49
CC(C)(C)c1cc(O)ccc1O [TBHQ, t-butyl hydroquinone]	P. acnes NCTC 737	19.48
CCc1cc(O)ccc1O [2-ethyl-p-hydroquinone]	P. acnes NCTC 737	9.38
Cc1c(O)ccc(O)c1C [2,3-dimethyl-p-hydroquinone]	P. acnes NCTC 737	14.38

Field: next molecule
The molecule identified as Oc1ccc(O)cc1 [p-hydroquinone] registered its DDA + salt at 0.0
